- Test system: human retinal capillary endothelial cells (HRCECs)
- EXPERIMENT NOTES: MTT proliferation inhibition on HRCECs
- Assay type: cell-based
- SETUP CONDITIONS: 48 h, dose 0.2 μM
Peptide text beside a SMILES is read from it. * marks the point of attachment. X68 = O=C1C=CC(=O)N1c1ccccc1CCCCCCCCCCCC(=O)*; X60 = O=C1C=CC(=O)N1c1ccccc1CCCCCCCCCC(=O)*; X54 = O=C1C=CC(=O)N1c1cccc(CCCCCCC(=O)*)c1; X52 = O=C1C=CC(=O)N1c1ccccc1CCCCCCCC(=O)*; X61 = O=C1C=CC(=O)N1c1cccc(CCCC(=O)*)c1; X79 = O=C1C=CC(=O)N1c1cccc(CCC(=O)*)c1
READOUT TYPE: Inhibition rate (%) (%*)

{"columns": ["MOLECULE", "READOUT TYPE", "OUTPUT UNIT", "ENDPOINT VALUE"],
 "data": [
  ["C[C@H](NC(=O)CNC(=O)[C@H](CCCNC(=N)N)NC(=O)CCc1cccc(N2C(=O)C=CC2=O)c1)C(=O)N[C@@H](CC(=O)O)C(=O)N[C@@H](CCCNC(=N)N)C(=O)N[C@@H](C)C(=O)NCC(=O)NCC(=O)NCC(=O)NCC(=O)N[C@@H](CCCNC(=N)N)C(=O)NCC(=O)N[C@@H](CC(=O)O)C(=O)O [X26] (X79-RGADRAGGGGRGD-OH)", "Inhibition rate (%)", "%*", 68.51],
  ["C[C@H](NC(=O)CNC(=O)[C@H](CCCNC(=N)N)NC(=O)CCCCCCc1cccc(N2C(=O)C=CC2=O)c1)C(=O)N[C@@H](CC(=O)O)C(=O)N[C@@H](CCCNC(=N)N)C(=O)N[C@@H](C)C(=O)NCC(=O)NCC(=O)NCC(=O)NCC(=O)N[C@@H](CCCNC(=N)N)C(=O)NCC(=O)N[C@@H](CC(=O)O)C(=O)O [X30] (X54-RGADRAGGGGRGD-OH)", "Inhibition rate (%)", "%*", 65.82],
  ["C[C@H](NC(=O)CNC(=O)[C@H](CCCNC(=N)N)NC(=O)CCCc1cccc(N2C(=O)C=CC2=O)c1)C(=O)N[C@@H](CC(=O)O)C(=O)N[C@@H](CCCNC(=N)N)C(=O)N[C@@H](C)C(=O)NCC(=O)NCC(=O)NCC(=O)NCC(=O)N[C@@H](CCCNC(=N)N)C(=O)NCC(=O)N[C@@H](CC(=O)O)C(=O)O [X27] (X61-RGADRAGGGGRGD-OH)", "Inhibition rate (%)", "%*", 56.64],
  ["C[C@H](NC(=O)CNC(=O)[C@H](CCCNC(=N)N)NC(=O)CCCCCCCCCc1ccccc1N1C(=O)C=CC1=O)C(=O)N[C@@H](CC(=O)O)C(=O)N[C@@H](CCCNC(=N)N)C(=O)N[C@@H](C)C(=O)NCC(=O)NCC(=O)NCC(=O)NCC(=O)N[C@@H](CCCNC(=N)N)C(=O)NCC(=O)N[C@@H](CC(=O)O)C(=O)O [X21] (X60-RGADRAGGGGRGD-OH)", "Inhibition rate (%)", "%*", 69.16],
  ["C[C@H](NC(=O)CNC(=O)[C@H](CCCNC(=N)N)NC(=O)CCCCCCCc1ccccc1N1C(=O)C=CC1=O)C(=O)N[C@@H](CC(=O)O)C(=O)N[C@@H](CCCNC(=N)N)C(=O)N[C@@H](C)C(=O)NCC(=O)NCC(=O)NCC(=O)NCC(=O)N[C@@H](CCCNC(=N)N)C(=O)NCC(=O)N[C@@H](CC(=O)O)C(=O)O [X19] (X52-RGADRAGGGGRGD-OH)", "Inhibition rate (%)", "%*", 64.71],
  ["C[C@H](NC(=O)CNC(=O)[C@H](CCCNC(=N)N)NC(=O)CCCCCCCCCCCc1ccccc1N1C(=O)C=CC1=O)C(=O)N[C@@H](CC(=O)O)C(=O)N[C@@H](CCCNC(=N)N)C(=O)N[C@@H](C)C(=O)NCC(=O)NCC(=O)NCC(=O)NCC(=O)N[C@@H](CCCNC(=N)N)C(=O)NCC(=O)N[C@@H](CC(=O)O)C(=O)O [X23] (X68-RGADRAGGGGRGD-OH)", "Inhibition rate (%)", "%*", 48.91]
]}

---

- EXPERIMENT NOTES: Half-lives and pharmacokinetic parameters of polypeptides vs HM-1
- SETUP CONDITIONS: in vivo
Peptide text beside a SMILES is read from it. * marks the point of attachment. X65 = O=C1C=CC(=O)N1c1cccc(CCCCCCCCCCCCC(=O)*)c1; X58 = O=C1C=CC(=O)N1c1cccc(CCCCCCCCCCCC(=O)*)c1; X9 = O=C1C=CC(=O)N1CCOCCOCCOCCOCCOCCCCCCCC(=O)*; X11 = O=C1C=CC(=O)N1CCOCCOCCOCCOCCOCCCCCC(=O)*; X68 = O=C1C=CC(=O)N1c1ccccc1CCCCCCCCCCCC(=O)*; X66 = O=C1C=CC(=O)N1c1cccc(CCCCCCCC(=O)*)c1; X61 = O=C1C=CC(=O)N1c1cccc(CCCC(=O)*)c1; X47 = O=C1C=CC(=O)N1c1ccccc1CCCCC(=O)*; X2 = O=C1C=CC(=O)N1CCOCCOCCCCCC(=O)*; X21 = O=C1C=CC(=O)N1CCOCCCCCCC(=O)*; X67 = O=C1C=CC(=O)N1CCCCCCCCCC(=O)*; X13 = O=C1C=CC(=O)N1CCOCCCCCC(=O)*

{"columns": ["MOLECULE", "MRT inf (h)"],
 "data": [
  ["C[C@H](NC(=O)CNC(=O)[C@H](CCCNC(=N)N)NC(=O)CCCCCCCCCCCc1cccc(N2C(=O)C=CC2=O)c1)C(=O)N[C@@H](CC(=O)O)C(=O)N[C@@H](CCCNC(=N)N)C(=O)N[C@@H](C)C(=O)NCC(=O)NCC(=O)NCC(=O)NCC(=O)N[C@@H](CCCNC(=N)N)C(=O)NCC(=O)N[C@@H](CC(=O)O)C(=O)O [X35] (X58-RGADRAGGGGRGD-OH)", 57.1],
  ["C[C@H](NC(=O)CNC(=O)[C@H](CCCNC(=N)N)NC(=O)CCCCCOCCN1C(=O)C=CC1=O)C(=O)N[C@@H](CC(=O)O)C(=O)N[C@@H](CCCNC(=N)N)C(=O)N[C@@H](C)C(=O)NCC(=O)NCC(=O)NCC(=O)NCC(=O)N[C@@H](CCCNC(=N)N)C(=O)NCC(=O)N[C@@H](CC(=O)O)C(=O)O [X53] (X13-RGADRAGGGGRGD-OH)", 55.5],
  ["C[C@H](NC(=O)CNC(=O)[C@H](CCCNC(=N)N)NC(=O)CCCCCCOCCN1C(=O)C=CC1=O)C(=O)N[C@@H](CC(=O)O)C(=O)N[C@@H](CCCNC(=N)N)C(=O)N[C@@H](C)C(=O)NCC(=O)NCC(=O)NCC(=O)NCC(=O)N[C@@H](CCCNC(=N)N)C(=O)NCC(=O)N[C@@H](CC(=O)O)C(=O)O [X54] (X21-RGADRAGGGGRGD-OH)", 48.8],
  ["C[C@H](NC(=O)CNC(=O)[C@H](CCCNC(=N)N)NC(=O)CCCCCCCCCCCCc1cccc(N2C(=O)C=CC2=O)c1)C(=O)N[C@@H](CC(=O)O)C(=O)N[C@@H](CCCNC(=N)N)C(=O)N[C@@H](C)C(=O)NCC(=O)NCC(=O)NCC(=O)NCC(=O)N[C@@H](CCCNC(=N)N)C(=O)NCC(=O)N[C@@H](CC(=O)O)C(=O)O [X36] (X65-RGADRAGGGGRGD-OH)", 50.4],
  ["C[C@H](NC(=O)CNC(=O)[C@H](CCCNC(=N)N)NC(=O)CCCCCCCCCN1C(=O)C=CC1=O)C(=O)N[C@@H](CC(=O)O)C(=O)N[C@@H](CCCNC(=N)N)C(=O)N[C@@H](C)C(=O)NCC(=O)NCC(=O)NCC(=O)NCC(=O)N[C@@H](CCCNC(=N)N)C(=O)NCC(=O)N[C@@H](CC(=O)O)C(=O)O [X9] (X67-RGADRAGGGGRGD-OH)", 56],
  ["C[C@H](NC(=O)CNC(=O)[C@H](CCCNC(=N)N)NC(=O)CCCCCOCCOCCOCCOCCOCCN1C(=O)C=CC1=O)C(=O)N[C@@H](CC(=O)O)C(=O)N[C@@H](CCCNC(=N)N)C(=O)N[C@@H](C)C(=O)NCC(=O)NCC(=O)NCC(=O)NCC(=O)N[C@@H](CCCNC(=N)N)C(=O)NCC(=O)N[C@@H](CC(=O)O)C(=O)O [X81] (X11-RGADRAGGGGRGD-OH)", 54.9],
  ["C[C@H](NC(=O)CNC(=O)[C@H](CCCNC(=N)N)NC(=O)CCCCCCCc1cccc(N2C(=O)C=CC2=O)c1)C(=O)N[C@@H](CC(=O)O)C(=O)N[C@@H](CCCNC(=N)N)C(=O)N[C@@H](C)C(=O)NCC(=O)NCC(=O)NCC(=O)NCC(=O)N[C@@H](CCCNC(=N)N)C(=O)NCC(=O)N[C@@H](CC(=O)O)C(=O)O [X31] (X66-RGADRAGGGGRGD-OH)", 51.3],
  ["C[C@H](NC(=O)CNC(=O)[C@H](CCCNC(=N)N)NC(=O)CCCCCCCOCCOCCOCCOCCOCCN1C(=O)C=CC1=O)C(=O)N[C@@H](CC(=O)O)C(=O)N[C@@H](CCCNC(=N)N)C(=O)N[C@@H](C)C(=O)NCC(=O)NCC(=O)NCC(=O)NCC(=O)N[C@@H](CCCNC(=N)N)C(=O)NCC(=O)N[C@@H](CC(=O)O)C(=O)O [X83] (X9-RGADRAGGGGRGD-OH)", 52.3],
  ["C[C@H](NC(=O)CNC(=O)[C@H](CCCNC(=N)N)NC(=O)CCCCCOCCOCCN1C(=O)C=CC1=O)C(=O)N[C@@H](CC(=O)O)C(=O)N[C@@H](CCCNC(=N)N)C(=O)N[C@@H](C)C(=O)NCC(=O)NCC(=O)NCC(=O)NCC(=O)N[C@@H](CCCNC(=N)N)C(=O)NCC(=O)N[C@@H](CC(=O)O)C(=O)O [X60] (X2-RGADRAGGGGRGD-OH)", 54.1],
  ["C[C@H](NC(=O)CNC(=O)[C@H](CCCNC(=N)N)NC(=O)CCCc1cccc(N2C(=O)C=CC2=O)c1)C(=O)N[C@@H](CC(=O)O)C(=O)N[C@@H](CCCNC(=N)N)C(=O)N[C@@H](C)C(=O)NCC(=O)NCC(=O)NCC(=O)NCC(=O)N[C@@H](CCCNC(=N)N)C(=O)NCC(=O)N[C@@H](CC(=O)O)C(=O)O [X27] (X61-RGADRAGGGGRGD-OH)", 46.9],
  ["C[C@H](NC(=O)CNC(=O)[C@H](CCCNC(=N)N)NC(=O)CCCCc1ccccc1N1C(=O)C=CC1=O)C(=O)N[C@@H](CC(=O)O)C(=O)N[C@@H](CCCNC(=N)N)C(=O)N[C@@H](C)C(=O)NCC(=O)NCC(=O)NCC(=O)NCC(=O)N[C@@H](CCCNC(=N)N)C(=O)NCC(=O)N[C@@H](CC(=O)O)C(=O)O [X16] (X47-RGADRAGGGGRGD-OH)", 56.3],
  ["C[C@H](NC(=O)CNC(=O)[C@H](CCCNC(=N)N)NC(=O)CCCCCCCCCCCc1ccccc1N1C(=O)C=CC1=O)C(=O)N[C@@H](CC(=O)O)C(=O)N[C@@H](CCCNC(=N)N)C(=O)N[C@@H](C)C(=O)NCC(=O)NCC(=O)NCC(=O)NCC(=O)N[C@@H](CCCNC(=N)N)C(=O)NCC(=O)N[C@@H](CC(=O)O)C(=O)O [X23] (X68-RGADRAGGGGRGD-OH)", 45.8]
]}
